experiment: Solubility measurement of opiranserin hydrochloride according to solvents (HPLC); type: physicochemical; details: 1 w/v % Caprylocaproyl polyoxyl 8 glyceride, 25 °C, aqueous with cosolvent or surfactant or cyclodextrin, thermodynamic from solid, Solvent 7: 1 w/v % Caprylocaproyl polyoxyl 8 glyceride; 25° C./7 days
Counter-ions that a name gives are not always drawn.
Assay metric: solubility at 7 days (mg/mL)

CCCCOc1c(OC)cc(C(=O)NCC2(N(C)C)CCOCC2)cc1OC [Opiranserin hydrochloride] = 46.2

* * *

test: Solubility measurement of opiranserin hydrochloride according to solvents (HPLC); type: physicochemical; conditions: 1 w/v % Propylene glycol, 40 °C, water, thermodynamic from solid, Solvent 23: 1 w/v % Propylene glycol; 40° C./3 hours
Where a name gives a salt, the structure may show the parent alone.
Assay metric: solubility at 3 h (mg/mL)

CCCCOc1c(OC)cc(C(=O)NCC2(N(C)C)CCOCC2)cc1OC [Opiranserin hydrochloride] = 61.8

* * *

assay: Solubility measurement of opiranserin hydrochloride according to solvents (HPLC); format: physicochemical; conditions: 1 w/v % Macrogol 15 hydroxystearate, 25 °C, aqueous with cosolvent or surfactant or cyclodextrin, thermodynamic from solid, Solvent 8: 1 w/v % Macrogol 15 hydroxystearate; 25° C./7 days
Counter-ions that a name gives are not always drawn.
Assay metric: solubility at 7 days

CCCCOc1c(OC)cc(C(=O)NCC2(N(C)C)CCOCC2)cc1OC [Opiranserin hydrochloride] = 44 mg/mL

* * *

assay: Solubility measurement of opiranserin hydrochloride according to solvents (HPLC); assay type: physicochemical; settings: 6 w/v % Triacetin, 40 °C, aqueous with cosolvent or surfactant or cyclodextrin, thermodynamic from solid, Solvent 20: 6 w/v % Triacetin; 40° C./3 hours
Structures can show the parent of a compound that is named as a salt.
Assay metric: solubility at 3 h

CCCCOc1c(OC)cc(C(=O)NCC2(N(C)C)CCOCC2)cc1OC [Opiranserin hydrochloride] = ~86 mg/mL

* * *

experiment: Solubility measurement of opiranserin hydrochloride according to solvents (HPLC); format: physicochemical; conditions: 5 w/v % Propylene glycol, 40 °C, aqueous with cosolvent or surfactant or cyclodextrin, thermodynamic from solid, Solvent 24: 5 w/v % Propylene glycol; 40° C./3 hours
Counter-ions that a name gives are not always drawn.
Assay metric: solubility at 3 h (mg/mL)

CCCCOc1c(OC)cc(C(=O)NCC2(N(C)C)CCOCC2)cc1OC [Opiranserin hydrochloride] = 74

* * *

test: Solubility measurement of opiranserin hydrochloride according to solvents (HPLC); format: physicochemical; conditions: 100% Methanol, 25 °C, organic solvent or mixture, thermodynamic from solid, Solvent 3: 100% Methanol; 25° C./7 days
Where a name gives a salt, the structure may show the parent alone.
Assay metric: solubility at 7 days (mg/mL)

CCCCOc1c(OC)cc(C(=O)NCC2(N(C)C)CCOCC2)cc1OC [Opiranserin hydrochloride] = 36

* * *

experiment: Solubility measurement of opiranserin hydrochloride according to solvents (HPLC); format: physicochemical; conditions: 1 w/v % Triacetin, 25 °C, water, thermodynamic from solid, Solvent 13: 1 w/v % Triacetin; 25° C./7 days
Counter-ions that a name gives are not always drawn.
Assay metric: solubility at 7 days (mg/mL)

CCCCOc1c(OC)cc(C(=O)NCC2(N(C)C)CCOCC2)cc1OC [Opiranserin hydrochloride] = 49.7

* * *

assay: Solubility measurement of opiranserin hydrochloride according to solvents (HPLC); assay type: physicochemical; details: 1 w/v % PEG-6 caprylic/capric glyceride, 25 °C, aqueous with cosolvent or surfactant or cyclodextrin, thermodynamic from solid, Solvent 16: 1 w/v % PEG-6 caprylic/capric glyceride; 25° C./7 days
Where a name gives a salt, the structure may show the parent alone.
Assay metric: solubility at 7 days (mg/mL)

CCCCOc1c(OC)cc(C(=O)NCC2(N(C)C)CCOCC2)cc1OC [Opiranserin hydrochloride] = 49
